- Measured on: T1, human RANKL (receptor activator of NF-κB ligand) (human, UniProt O14788 140-317, limits assumed)
- T1 construct: also called hRANKL; hRANKL native trimer
- T1 sequence: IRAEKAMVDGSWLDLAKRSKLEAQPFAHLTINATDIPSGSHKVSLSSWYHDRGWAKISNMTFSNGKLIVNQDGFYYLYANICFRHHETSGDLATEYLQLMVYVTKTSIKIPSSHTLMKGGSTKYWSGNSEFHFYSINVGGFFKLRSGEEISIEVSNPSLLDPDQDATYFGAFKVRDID
- Test protocol: SPR (BIACORE 2000), antibody captured on anti-hFc, hRANKL injected
- Procedure: Equilibrium dissociation constants (KD values) for antigen binding to the selected antibodies generated by hybridoma cell lines described above were determined by surface kinetics in a real-time biosensor surface plasmon resonance assay (BIACORE™ 2000). Each selected antibody was captured on a goat anti-mouse IgG polyclonal antibody surface created through direct chemical coupling to a BIACORE™ chip to form a captured antibody surface. […]
Measured parameter: pKd
Answers are plain numbers, as −log10 of the molar value.

Request: So what does the record say about pKd for 2H10 (antibody, V domains shown, From direct isolation of splenocytes; captured on anti-hFc; also called H4H009N) VH: QVQLVESGGGVVQPGRSLRLSCAASGFTFSGYGIHWVRQAPDKGLEWVAVISYDGTNKYYGDSVKGRFTISRDNTKNTLYLQMNSLRTEDTAVYYCAKSLSGTYWGYGMDVWGQGTTVTVSS VL: AIQMTQSPSTLSASVGDRVTITCRASQNIGNWLAWYQQKPGKAPKLLIYKASSLQNGVPSRFSGSGSGTEFTLTISSLQPDDFATYYCQRYNSYSWTFGQGTKVEIK ?
Result: 10.80
